The reader will find reported IC50 values listed item by item below.
- Tested On: Recombinant human ULK1 (1-649) (Homo sapiens (Human))
- Sequence (O75385 1-649): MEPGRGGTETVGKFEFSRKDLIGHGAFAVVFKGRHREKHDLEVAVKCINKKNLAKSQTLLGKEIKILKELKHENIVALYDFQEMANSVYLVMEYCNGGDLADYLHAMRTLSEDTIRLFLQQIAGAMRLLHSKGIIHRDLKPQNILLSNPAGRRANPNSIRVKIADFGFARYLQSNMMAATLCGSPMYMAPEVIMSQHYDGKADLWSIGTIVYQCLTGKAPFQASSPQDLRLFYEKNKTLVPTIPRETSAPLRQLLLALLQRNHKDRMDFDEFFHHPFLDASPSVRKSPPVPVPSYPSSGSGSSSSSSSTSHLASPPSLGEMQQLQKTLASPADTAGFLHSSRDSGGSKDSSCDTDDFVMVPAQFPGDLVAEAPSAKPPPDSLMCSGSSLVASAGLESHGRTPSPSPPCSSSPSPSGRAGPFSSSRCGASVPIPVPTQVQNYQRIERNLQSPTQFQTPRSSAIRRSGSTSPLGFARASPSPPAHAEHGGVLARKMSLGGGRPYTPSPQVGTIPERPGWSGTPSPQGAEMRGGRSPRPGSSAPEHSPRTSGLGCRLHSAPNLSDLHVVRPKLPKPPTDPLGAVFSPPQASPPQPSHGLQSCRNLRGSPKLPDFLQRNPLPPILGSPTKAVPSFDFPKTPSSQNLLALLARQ
- Test Protocol: ULK1 ADP Glo kinase activity assay (MBP substrate)
- Test Settings: 25° C., 40 minutes, read-out: ULK1 biochemical IC50
- Procedure: Recombinant human ULK1 (1-649) protein expressed in Sf9 insect cells was obtained from SignalChem (Vancouver, BC), catalog #U01-11G. Active kinase was purified via N-terminal GST tag to >85% purity. […] ULK1 inhibitor potency was determined using the luminescent ADP Glo Kinase Assay (Promega), a universal ADP detection system that measures kinase activity by quantifying the amount of ADP produced during a kinase reaction. […]

{"Compound": "NC(=O)c1csc(-c2nc(Nc3cc4c(cc3Cl)CNCC4)ncc2C(N)=O)c1 [Example 26]", "IC50": "> 500 nM"}
{"Compound": "O=C1NCCOc2sc(-c3nc(Nc4cc5c(cc4Cl)CN(C(=O)C(F)(F)F)CC5)ncc3C(F)(F)F)cc21 [compound 70]", "IC50": "10 to 50 nM"}
{"Compound": "CSc1cc2c(cc1Nc1ncc(C(F)(F)F)c(-c3cc4c(s3)CCNC4=O)n1)CCNC2 [Example 35]", "IC50": "≤ 10 nM"}
{"Compound": "O=C1NCCc2sc(-c3nc(Nc4cc5c(cc4C4CC4)CNCC5)ncc3C(F)(F)F)cc21 [Example 29]", "IC50": "≤ 10 nM"}
{"Compound": "CS(=O)(=O)c1cc(-c2nc(Nc3cc4c(cc3Cl)CNCC4)ncc2C(F)(F)F)sc1C(N)=O [Example 59]", "IC50": "≤ 10 nM"}

IC50 in this record for CN1CC(N2Cc3cc(Cl)c(Nc4ncc(C(F)(F)F)c(-c5cc(C(N)=O)cs5)n4)cc3C2)C1 [Example 12] : ≤ 10 nM

IC50 in this record for CS(=O)(=O)c1csc(-c2nc(Nc3ccc4c(c3)CCNC4)ncc2C(F)(F)F)c1 [Example 105] : ≤ 10 nM

IC50 in this record for CN1CCN(c2ccc(Nc3ncc(C(F)(F)F)c(-c4cc5c(s4)CCNC5=O)n3)c(C3CC3)c2)CC1 [Example 36] : ≤ 10 nM
